target: UniProt:P50750; assay: In vitro kinase inhibition, KinaseProfiler service of Millipore, residual activity; type: biochemical; settings: residual activity at 10 nM compound; read-out: CDK9 10 nM (RA in %)
Sequence (P50750 whole entry): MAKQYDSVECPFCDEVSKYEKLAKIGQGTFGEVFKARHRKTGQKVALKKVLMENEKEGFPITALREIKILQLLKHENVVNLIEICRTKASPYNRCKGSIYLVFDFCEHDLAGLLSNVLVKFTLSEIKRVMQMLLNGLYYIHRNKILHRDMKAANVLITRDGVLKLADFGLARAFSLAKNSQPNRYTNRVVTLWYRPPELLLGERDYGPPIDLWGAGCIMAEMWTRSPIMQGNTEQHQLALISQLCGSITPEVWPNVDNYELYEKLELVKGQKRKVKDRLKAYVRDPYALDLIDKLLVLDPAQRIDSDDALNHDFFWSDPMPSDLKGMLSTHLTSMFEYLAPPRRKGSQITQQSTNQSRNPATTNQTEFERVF
Sequence (O60563 whole entry partner): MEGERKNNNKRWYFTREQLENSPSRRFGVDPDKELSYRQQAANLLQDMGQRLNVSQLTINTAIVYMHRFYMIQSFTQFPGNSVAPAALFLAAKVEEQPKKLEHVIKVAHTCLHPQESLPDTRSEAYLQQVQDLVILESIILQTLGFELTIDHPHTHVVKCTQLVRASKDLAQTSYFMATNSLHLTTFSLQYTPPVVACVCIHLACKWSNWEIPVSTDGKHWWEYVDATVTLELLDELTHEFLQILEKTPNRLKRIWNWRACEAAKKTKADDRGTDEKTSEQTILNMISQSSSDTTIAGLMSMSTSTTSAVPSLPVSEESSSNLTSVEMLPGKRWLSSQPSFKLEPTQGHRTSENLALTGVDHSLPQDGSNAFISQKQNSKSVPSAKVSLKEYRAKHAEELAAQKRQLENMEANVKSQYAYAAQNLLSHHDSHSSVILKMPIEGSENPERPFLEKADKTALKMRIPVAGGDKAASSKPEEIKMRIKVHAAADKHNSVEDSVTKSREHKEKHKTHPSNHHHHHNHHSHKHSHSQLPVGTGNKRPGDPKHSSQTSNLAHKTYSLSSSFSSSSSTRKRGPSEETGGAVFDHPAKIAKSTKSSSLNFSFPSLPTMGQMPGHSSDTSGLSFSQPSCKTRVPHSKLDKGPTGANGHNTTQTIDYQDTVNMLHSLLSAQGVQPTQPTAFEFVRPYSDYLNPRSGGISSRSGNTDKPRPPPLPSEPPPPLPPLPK
Doc: threshold 60% (exclusive). Items with remaining activity at 0.01 µM beneath it return satisfied; others return not satisfied.

The examples below pair each entry with its known result.
>  <compound>
COc1cc(F)ccc1-c1ccnc(NC(=O)[C@H]2CC[C@@H](Nc3ccncc3)CC2)c1

>  <cat>
satisfied

$$$$
>  <compound>
COc1cc(F)ccc1-c1ccnc(NC(=O)CC(C)c2ccncc2)c1 (stereo not drawn)

>  <cat>
not satisfied

$$$$
>  <compound>
COc1cc(F)ccc1-c1ccnc(NC(=O)Cc2ccncc2)c1

>  <cat>
not satisfied

$$$$
>  <compound>
COc1cc(F)ccc1-c1ccnc(NC(=O)C2CCNCC2)c1

>  <cat>
not satisfied

$$$$

Prompt line: Field: below-cutoff. Rule: recorded remaining activity at 0.01 µM strictly less than 60%. Subject: COc1cc(F)ccc1-c1ccnc(NC(=O)[C@H]2CC[C@@H](NCc3ccccc3)CC2)c1
Response line: not satisfied

Prompt line: Field: below-cutoff. Rule: recorded remaining activity at 0.01 µM strictly less than 60%. Subject: COc1ccc(CC(=O)Nc2cc(-c3ccc(F)cc3OC)ccn2)cc1
Response line: not satisfied

Prompt line: Field: below-cutoff. Rule: recorded remaining activity at 0.01 µM strictly less than 60%. Subject: COc1cc(F)ccc1-c1ccnc(NC(=O)Cc2ccnc(N3CCN(C)CC3)c2)c1
Response line: satisfied

Prompt line: Field: below-cutoff. Rule: recorded remaining activity at 0.01 µM strictly less than 60%. Subject: COc1cc(F)ccc1-c1ccnc(NC(=O)Cc2ccnc(Cl)c2)c1
Response line: satisfied
